tested system: 5-hydroxytryptamine receptor 4 (Cavia porcellus)
assay comment: Binding affinity for 5-hydroxytryptamine 4 receptor in guinea pig was determined by guinea pig striatum binding assay
measured attribute: pKi
Quick note: pKi means taking -log10 of the concentration in moles per liter.

Prompt line: For the compound shown here, COc1cc(N)c(Cl)cc1C(=O)NC1C2CC3CC1CN(C3)C2 (stereo in doubt; 9b) , give the reported pKi.
Response line: 7.24

###

tested system: Serotonin 2 (5-HT2) receptor (Homo sapiens, UniProt P41595+P28223+P28335)
Format: protein assay
measured attribute: IC50

> print(dat)
                                   molecule                             tested.system   result
1  COc1cc(N)c(Cl)cc1C(=O)NC1C2CC3CC1CN(C3)C2 (stereo in doubt; 9b)  Serotonin 2 (5-HT2) receptor (Homo sapiens, UniProt P41595+P28223+P28335)  > 10 µM
2  COc1cc(N)c(Cl)cc1C(=O)N[C@@H]1C2CC3CN(C2)CC31 (some centres undefined)  Serotonin 2 (5-HT2) receptor (Homo sapiens, UniProt P41595+P28223+P28335)  > 10 µM
3  COc1cc(N)c(Cl)cc1C(=O)NCC1C2CC3CC1CN(C3)C2 (stereo in doubt; 9c)  Serotonin 2 (5-HT2) receptor (Homo sapiens, UniProt P41595+P28223+P28335)  > 10 µM

Shift focus to the following entry.
Prompt line: Can you share its IC50? I mean this molecule: COc1cc(N)c(Cl)cc1C(=O)NC1C2CC3CC1CN(C3)C2 (stereo in doubt; 9a)
Response line: 1.8 µM
